Data origin: ChEMBL document CHEMBL5532666

Target: Serine/threonine-protein kinase 26 (Homo sapiens)
Sequence (Q9P289 whole entry): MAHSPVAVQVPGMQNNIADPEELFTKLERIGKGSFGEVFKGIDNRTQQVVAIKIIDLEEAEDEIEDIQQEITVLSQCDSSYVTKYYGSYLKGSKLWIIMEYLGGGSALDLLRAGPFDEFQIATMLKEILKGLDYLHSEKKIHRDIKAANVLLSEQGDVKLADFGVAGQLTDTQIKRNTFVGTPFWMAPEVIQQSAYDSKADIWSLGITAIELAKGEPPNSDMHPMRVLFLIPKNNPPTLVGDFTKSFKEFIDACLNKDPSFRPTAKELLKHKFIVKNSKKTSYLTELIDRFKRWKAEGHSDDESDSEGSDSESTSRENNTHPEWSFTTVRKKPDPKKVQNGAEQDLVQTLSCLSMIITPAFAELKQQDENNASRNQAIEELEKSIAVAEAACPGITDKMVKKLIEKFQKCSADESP
Test: Binding affinity to C-terminal full length human MST4 expressed in permeabilized HEK293T cells incubated for 2 hrs by NanoBRET assay
Type: cell-based
pEC50: −log10 of the molar value.
Listing of recorded pEC50 by entry.
Observable: pEC50

Chemical String: O=C1NCCOCCNc2nc(c3ccccc3n2)Nc2cc1[nH]n2
Bound Operator: =
Value Observed: 5.37
//
Chemical String: Cc1cnc2nc1Nc1cc([nH]n1)C(=O)NCCc1ccc(cc1)N2
Bound Operator: <
Value Observed: 4.30
//
Chemical String: O=C1NCCCCCCNc2ncc(Cl)c(n2)Nc2cc1[nH]n2
Bound Operator: =
Value Observed: 4.35
//
Chemical String: O=C1NCCc2ccc(cc2)Nc2ncc(Cl)c(n2)Nc2cc1[nH]n2
Bound Operator: =
Value Observed: 5.12
//
Chemical String: O=C1NCCOCCNc2ncc(Cl)c(n2)Nc2cc1[nH]n2
Bound Operator: =
Value Observed: 4.38

====

Molecular target: Serine/threonine-protein kinase 3 (Homo sapiens) (UniProt Q13188)
Sequence (Q13188 whole entry): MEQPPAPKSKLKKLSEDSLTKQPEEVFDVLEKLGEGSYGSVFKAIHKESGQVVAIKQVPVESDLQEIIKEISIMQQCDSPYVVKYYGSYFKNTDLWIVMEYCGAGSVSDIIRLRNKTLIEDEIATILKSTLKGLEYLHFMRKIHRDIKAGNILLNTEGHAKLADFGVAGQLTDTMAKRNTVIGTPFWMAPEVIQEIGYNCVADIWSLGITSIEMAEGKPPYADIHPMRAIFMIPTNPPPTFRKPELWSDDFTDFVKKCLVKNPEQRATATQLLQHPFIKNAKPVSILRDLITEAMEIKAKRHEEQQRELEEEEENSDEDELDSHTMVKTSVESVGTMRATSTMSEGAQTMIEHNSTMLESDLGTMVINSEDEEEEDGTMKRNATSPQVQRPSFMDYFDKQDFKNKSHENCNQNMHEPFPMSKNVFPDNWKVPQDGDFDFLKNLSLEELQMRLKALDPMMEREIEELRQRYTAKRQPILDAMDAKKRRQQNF
Details: dose 10.0 µM
Description: Binding affinity to recombinant MST2 (unknown origin) kinase domain assessed as thermal stabilization by measuring change in melting temperature at 10 uM by DSF analysis

Chemical String: O=C1NCCOCCNc2nc(c3ccccc3n2)Nc2cc1[nH]n2
ΔTm (°C): 0.5
--
Chemical String: Cc1cnc2nc1Nc1cc([nH]n1)C(=O)NCCc1ccc(cc1)N2
ΔTm (°C): 0.2
--
Chemical String: O=C1NCCCCCNc2nc(c3ccccc3n2)Nc2cc1[nH]n2
ΔTm (°C): 1.1
--
Chemical String: N#CCc1ccc(Nc2nccc(Nc3cc(C4CC4)[nH]n3)n2)cc1
ΔTm (°C): 11.6
--
Chemical String: O=C1NCCc2cccc(c2)Nc2ncc(Cl)c(n2)Nc2cc1[nH]n2
ΔTm (°C): 1.7
